molecular target: full-length beta-Catenin (Uniprot ID P35222) (Homo sapiens); construct: 10 nM full-length beta-Catenin (Uniprot ID P35222); assay: Fluorescence polarization IC50 (beta-catenin / 5FAM-TCF4 10-53 competition); type: binding; conditions: fluorescence polarization; read-out: beta-Catenin FP IC50
Sequence (P35222 whole entry): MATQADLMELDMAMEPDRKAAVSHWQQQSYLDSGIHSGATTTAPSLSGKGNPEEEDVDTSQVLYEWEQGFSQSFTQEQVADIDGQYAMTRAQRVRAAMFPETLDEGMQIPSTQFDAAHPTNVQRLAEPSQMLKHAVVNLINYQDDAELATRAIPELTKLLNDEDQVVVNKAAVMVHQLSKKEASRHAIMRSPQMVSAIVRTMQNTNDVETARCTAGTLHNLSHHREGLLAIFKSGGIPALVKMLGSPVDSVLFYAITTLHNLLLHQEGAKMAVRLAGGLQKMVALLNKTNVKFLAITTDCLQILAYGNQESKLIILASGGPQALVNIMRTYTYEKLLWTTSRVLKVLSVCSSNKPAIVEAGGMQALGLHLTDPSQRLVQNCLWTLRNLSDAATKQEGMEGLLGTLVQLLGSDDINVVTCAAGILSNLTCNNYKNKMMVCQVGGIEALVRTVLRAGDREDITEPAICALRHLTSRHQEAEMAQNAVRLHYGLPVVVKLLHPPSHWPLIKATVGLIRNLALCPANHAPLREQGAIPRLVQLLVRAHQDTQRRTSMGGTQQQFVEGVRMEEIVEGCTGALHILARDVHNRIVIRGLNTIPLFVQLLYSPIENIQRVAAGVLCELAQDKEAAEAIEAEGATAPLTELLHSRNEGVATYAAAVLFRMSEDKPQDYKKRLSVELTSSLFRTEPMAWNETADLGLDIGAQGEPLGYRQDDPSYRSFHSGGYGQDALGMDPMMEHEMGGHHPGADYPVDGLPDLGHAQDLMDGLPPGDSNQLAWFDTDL
Exercise: state measured pIC50 for each of the compounds provided.
For clarity, pIC50 is expressed as the negative log10 of concentration in mol/L.

// query Determine from records and report pIC50 for CC(=O)N1CCC[C@]12CC=CCCCC1(CCCC=CCCCCCC[C@@](C)(C(=O)N[C@@H](Cc3ccccc3)C(=O)N[C@@H](Cc3csc4ccccc34)C(=O)N[C@@H](CCC(N)=O)C(N)=O)NC(=O)[C@H](CC(C)C)NC(=O)[C@H](Cc3ccccc3)NC(=O)[C@H](C)NC(=O)[C@H](C)NC(=O)[C@H](CCC(=O)O)NC(=O)[C@H](CC(=O)O)NC1=O)NC(=O)[C@H](Cc1ccccc1)NC(=O)[C@H](CC(=O)O)NC2=O (some centres unmarked)
// result 7.66

// query Determine from records and report pIC50 for CC(=O)N1CCC[C@]12CC=CCCCC1(CCCC=CCCCOC(=O)N3CC[C@@](C(=O)N[C@@H](Cc4ccsc4)C(=O)N[C@@H](Cc4cccc5ccccc45)C(=O)N[C@@H](CO)C(N)=O)(C3)NC(=O)[C@H](CC(C)C)NC(=O)[C@H](Cc3ccccc3)NC(=O)[C@H](C)NC(=O)[C@H](C)NC(=O)[C@H](CC(=O)O)NC(=O)[C@H](CC(=O)O)NC1=O)NC(=O)[C@H](CC(C)(C)C)NC(=O)[C@H](CC(=O)O)NC2=O (some centres unmarked)
// result 7.36

###

Exercise: state measured EC50 for each of the compounds provided.
target: full-length B-Catenin (Uniprot ID P35222) (Homo sapiens); construct: 65 nM full-length B-Catenin (Uniprot ID P35222); assay: Alphascreen binding assay (beta-catenin / biotin-TCF4 10-53)
Sequence (P35222 whole entry): as above
Just the number in nM, nothing appended.

// query Determine from records and report EC50 for CC(=O)NC(C)(C)C(=O)N[C@@H](CC(=O)O)C(=O)N[C@@H](C)C(=O)N[C@]1(C)CCCCCCC=CCOC(=O)N2CC[C@@](C(=O)N[C@@H](Cc3ccccc3)C(=O)N[C@@H](Cc3c[nH]c4ccccc34)C(=O)N[C@@H](CCC(N)=O)C(N)=O)(C2)NC(=O)[C@H](C(C)C)NC(=O)[C@H](Cc2ccccc2)NC(=O)[C@H](C)NC(=O)[C@H](C)NC(=O)[C@H](CCC(=O)O)NC(=O)[C@H](CC(=O)O)NC1=O
// result 2170

// query Determine from records and report EC50 for CC(=O)N1CCC[C@]12CC=CCCCC1(CCCC=CCCCCCC[C@@](C)(C(=O)N[C@@H](Cc3ccccc3)C(=O)N[C@@H](Cc3c[nH]c4ccccc34)C(=O)N[C@@H](CCC(N)=O)C(N)=O)NC(=O)[C@H](C(C)C)NC(=O)[C@H](Cc3cc(F)c(F)c(F)c3)NC(=O)[C@H](C)NC(=O)[C@H](C)NC(=O)[C@H](CCC(=O)O)NC(=O)[C@H](CC(=O)O)NC1=O)NC(=O)[C@H](C)NC(=O)[C@H](CC(=O)O)NC2=O (stereo partly shown) [I-212]
// result 367

// query Determine from records and report EC50 for CC(=O)N[C@@H](Cc1ccccc1)C(=O)N[C@@H](CC(=O)O)C(=O)N[C@@H](C)C(=O)N[C@]1(C)CCCCCCC=CCOC(=O)N2CC[C@@](C(=O)N[C@@H](Cc3c(F)c(F)c(F)c(F)c3F)C(=O)N[C@@H](Cc3c[nH]c4ccccc34)C(=O)N[C@@H](CCC(N)=O)C(N)=O)(C2)NC(=O)[C@H](C(C)C)NC(=O)[C@H](Cc2ccccc2)NC(=O)[C@H](C)NC(=O)[C@H](C)NC(=O)[C@H](CC(=O)O)NC(=O)[C@H](CC(=O)O)NC1=O [I-225]
// result 7630

// query Determine from records and report EC50 for CC(=O)N1CCC[C@]12CC=CCCCC1(CCCC=CCOC(=O)N(C)CCC[C@@](C)(C(=O)N[C@@H](Cc3ccccc3)C(=O)N[C@@H](Cc3c[nH]c4ccccc34)C(=O)N[C@@H](CCC(N)=O)C(N)=O)NC(=O)[C@H](C(C)C)NC(=O)[C@H](Cc3ccccc3)NC(=O)[C@H](C)NC(=O)[C@H](C)NC(=O)[C@H](CCC(=O)O)NC(=O)[C@H](CC(=O)O)NC1=O)NC(=O)[C@H](C)NC(=O)[C@H](CC(=O)O)NC2=O (stereo partly shown)
// result 797

// query Determine from records and report EC50 for CC[C@H](C)[C@@H]1NC(=O)[C@H](CC(=O)O)NC(=O)[C@]2(CC=CCCCC3(CCCC=CCCCCCC[C@@](C)(C(=O)N[C@@H](Cc4ccccc4)C(=O)N[C@@H](Cc4c[nH]c5ccccc45)C(N)=O)NC(=O)[C@H](CCC(N)=O)NC(=O)[C@H](Cc4ccccc4)NC(=O)[C@H](C)NC(=O)[C@H](C)NC(=O)[C@H](CCC(=O)O)NC(=O)[C@H](CC(=O)O)NC3=O)NC1=O)CCCN2C(C)=O (stereo partly shown) [I-191]
// result 240

// query Determine from records and report EC50 for CC(=O)N1CCC[C@]12CC=CCCCC1(CCCC=CCCCCCC[C@@](C)(C(=O)N[C@@H](Cc3ccccc3)C(=O)N[C@@H](Cc3c[nH]c4ccccc34)C(=O)N[C@@H](CCC(N)=O)C(N)=O)NC(=O)[C@H](C(C)C)NC(=O)[C@H](Cc3ccccc3)NC(=O)[C@H](C)NC(=O)[C@H](C)NC(=O)[C@H](CCC(=O)O)NC(=O)[C@H](Cc3c[nH]cn3)NC1=O)NC(=O)[C@H](C)NC(=O)[C@H](CC(=O)O)NC2=O (stereo partly shown)
// result 2140

// query Determine from records and report EC50 for CC(=O)N1CCC[C@]12CC=CCCCC1(CCCC=CCCCCCC[C@@](C)(C(=O)N[C@@H](Cc3ccccc3)C(=O)N[C@@H](Cc3c[nH]c4ccccc34)C(N)=O)NC(=O)[C@H](C(C)C)NC(=O)[C@H](Cc3ccccc3)NC(=O)[C@H](C)NC(=O)[C@H](C)NC(=O)[C@H](CC(=O)O)NC(=O)[C@H](CC(=O)O)NC1=O)NC(=O)[C@H](C)NC(=O)[C@H](CC(=O)O)NC2=O (stereo partly shown)
// result 626

// query Determine from records and report EC50 for CC(=O)N1CCC[C@]12CC=CCCCC1(CCCC=CCCCCCC[C@@](C)(C(=O)N[C@@H](Cc3ccccc3)C(=O)N[C@@H](Cc3c[nH]c4ccccc34)C(=O)N[C@@H](CCC(N)=O)C(N)=O)NC(=O)[C@H](C(C)C)NC(=O)[C@H](Cc3ccccc3)NC(=O)[C@H](C)NC(=O)[C@H](C)NC(=O)[C@H](CCc3ccc(O)cc3)NC(=O)[C@H](CC(=O)O)NC1=O)NC(=O)[C@H](C)NC(=O)[C@H](CC(=O)O)NC2=O (stereo partly shown)
// result 1890

// query Determine from records and report EC50 for CC(=O)N[C@@H](Cc1ccccc1)C(=O)N[C@@H](CC(=O)O)C(=O)N[C@@H](C)C(=O)N[C@]1(C)CCCCCCC=CCOC(=O)N2CC[C@@](C(=O)N[C@@H](Cc3ccccc3)C(=O)N[C@@H](Cc3c[nH]c4ccccc34)C(=O)N[C@@H](CCC(N)=O)C(N)=O)(C2)NC(=O)[C@H](C(C)C)NC(=O)[C@H](Cc2ccc(C(N)=O)cc2)NC(=O)[C@H](C)NC(=O)[C@H](C)NC(=O)[C@H](CC(=O)O)NC(=O)[C@H](CC(=O)O)NC1=O
// result 4720

// query Determine from records and report EC50 for CC(=O)N1CCC[C@]12CC=CCCCC1(CCCC=CCCCCCC[C@@](C)(C(=O)N[C@@H](Cc3ccccc3)C(=O)N[C@@H](Cc3c[nH]c4ccccc34)C(=O)N[C@@H](C)C(N)=O)NC(=O)[C@H](C(C)C)NC(=O)[C@H](Cc3ccccc3)NC(=O)[C@H](C)NC(=O)[C@H](C)NC(=O)[C@H](CC(=O)O)NC(=O)[C@H](CC(=O)O)NC1=O)NC(=O)[C@H](C)NC(=O)[C@H](CC(=O)O)NC2=O (stereo partly shown) [I-291]
// result 327

Hey, just so you know, these numbers are from patent US20240116985A1.
